# Target Entity: human topoisomerase I (Homo sapiens, UniProt P11387)
# Sequence (P11387 whole entry): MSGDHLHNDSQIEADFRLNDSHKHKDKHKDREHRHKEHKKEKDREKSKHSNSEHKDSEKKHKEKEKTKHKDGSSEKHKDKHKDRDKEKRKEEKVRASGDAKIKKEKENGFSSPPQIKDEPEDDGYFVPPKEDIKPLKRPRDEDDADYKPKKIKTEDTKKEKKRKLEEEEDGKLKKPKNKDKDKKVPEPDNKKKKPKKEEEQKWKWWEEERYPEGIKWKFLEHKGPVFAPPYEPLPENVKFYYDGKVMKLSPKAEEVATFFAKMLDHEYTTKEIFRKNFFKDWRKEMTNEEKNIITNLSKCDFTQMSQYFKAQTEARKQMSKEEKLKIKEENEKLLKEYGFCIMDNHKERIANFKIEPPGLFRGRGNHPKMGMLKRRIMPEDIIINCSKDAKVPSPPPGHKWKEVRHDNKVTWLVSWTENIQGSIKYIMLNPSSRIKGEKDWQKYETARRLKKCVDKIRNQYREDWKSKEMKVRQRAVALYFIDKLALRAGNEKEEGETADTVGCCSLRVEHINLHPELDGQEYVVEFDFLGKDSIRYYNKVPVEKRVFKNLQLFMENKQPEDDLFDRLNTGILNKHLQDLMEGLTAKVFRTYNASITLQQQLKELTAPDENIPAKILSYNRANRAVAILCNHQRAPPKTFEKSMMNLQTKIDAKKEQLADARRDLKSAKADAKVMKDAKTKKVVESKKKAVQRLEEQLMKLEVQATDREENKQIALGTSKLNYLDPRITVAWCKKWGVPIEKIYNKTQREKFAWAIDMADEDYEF
Structures can show the parent of a compound that is named as a salt.
Property Name: IC50

Hey, human topoisomerase I (Homo sapiens, UniProt P11387) data for COc1cc(-c2cc3ccncc3c3nc(OCCN(C)C)c4cnccc4c23)cc(OC)c1OC [Example 1, Hydrochloride] : IC50 came out at < 10 µM

----------
# Target Entity: UniProtKB P11388
# Sequence (P11388 whole entry): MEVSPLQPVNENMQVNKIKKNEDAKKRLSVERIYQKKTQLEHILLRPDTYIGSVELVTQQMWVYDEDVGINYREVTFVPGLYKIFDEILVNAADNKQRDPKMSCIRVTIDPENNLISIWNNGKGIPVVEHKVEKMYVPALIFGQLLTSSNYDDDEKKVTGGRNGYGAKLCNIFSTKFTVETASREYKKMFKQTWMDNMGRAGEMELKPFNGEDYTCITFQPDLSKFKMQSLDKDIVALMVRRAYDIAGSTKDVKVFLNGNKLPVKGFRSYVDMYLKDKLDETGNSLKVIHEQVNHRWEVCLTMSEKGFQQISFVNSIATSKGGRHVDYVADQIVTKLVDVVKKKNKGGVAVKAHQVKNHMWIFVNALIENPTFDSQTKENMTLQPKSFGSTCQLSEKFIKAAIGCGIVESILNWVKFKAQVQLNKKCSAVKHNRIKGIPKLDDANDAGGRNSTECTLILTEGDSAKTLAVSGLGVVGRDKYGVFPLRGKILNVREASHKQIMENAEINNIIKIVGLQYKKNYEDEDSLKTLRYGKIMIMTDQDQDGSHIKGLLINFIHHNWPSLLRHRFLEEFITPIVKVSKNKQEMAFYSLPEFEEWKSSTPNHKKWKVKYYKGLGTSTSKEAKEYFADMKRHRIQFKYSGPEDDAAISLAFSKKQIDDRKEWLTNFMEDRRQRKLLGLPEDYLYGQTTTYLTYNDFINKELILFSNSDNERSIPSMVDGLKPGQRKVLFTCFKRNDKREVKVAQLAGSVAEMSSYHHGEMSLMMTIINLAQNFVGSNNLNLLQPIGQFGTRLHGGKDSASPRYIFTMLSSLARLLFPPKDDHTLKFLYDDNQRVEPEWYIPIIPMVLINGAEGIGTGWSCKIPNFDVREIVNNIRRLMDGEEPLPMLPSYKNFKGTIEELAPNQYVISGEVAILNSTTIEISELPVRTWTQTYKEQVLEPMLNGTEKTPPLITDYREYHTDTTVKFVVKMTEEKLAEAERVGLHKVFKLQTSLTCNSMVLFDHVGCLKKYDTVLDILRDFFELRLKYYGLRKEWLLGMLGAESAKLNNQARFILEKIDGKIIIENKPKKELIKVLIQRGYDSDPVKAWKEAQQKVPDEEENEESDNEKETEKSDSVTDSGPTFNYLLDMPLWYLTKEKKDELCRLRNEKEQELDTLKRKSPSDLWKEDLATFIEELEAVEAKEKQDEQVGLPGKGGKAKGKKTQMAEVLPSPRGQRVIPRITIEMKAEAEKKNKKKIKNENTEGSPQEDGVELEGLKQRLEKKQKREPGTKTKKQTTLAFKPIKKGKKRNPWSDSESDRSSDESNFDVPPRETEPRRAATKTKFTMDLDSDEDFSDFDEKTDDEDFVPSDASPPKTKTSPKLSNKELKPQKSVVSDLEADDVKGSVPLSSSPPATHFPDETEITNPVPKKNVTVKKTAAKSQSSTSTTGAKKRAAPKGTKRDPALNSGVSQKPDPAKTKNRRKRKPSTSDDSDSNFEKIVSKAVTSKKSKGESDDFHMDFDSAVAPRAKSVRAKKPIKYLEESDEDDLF
pIC50: −log10 of the molar value. Where a name gives a salt, the structure may show the parent alone.
Property Name: pIC50

The recorded pIC50 for COc1cc(-c2cc3ccncc3c3nc(OCCN(C)C)c4cnccc4c23)cc(OC)c1OC [Example 1, Hydrochloride] is > 5.00
